- Test system: LPS-induced TNFα release in differentiated U937 cells
- protocol: LPS-induced TNF alpha release in differentiated U937 cells
- Format: cell-based
- condition: Homo sapiens, read-out: R-EC50 values d-U937 cells
pEC50: −log10 of the molar value.
measurementLabel: pEC50

[
  {
    "smilesRepr": "Cc1ccc(-n2nc(C(C)(C)C)cc2NC(=O)Nc2ccc(OCc3ccnc(NC(=O)N4CCN(C)CC4)c3)c3ccccc23)cc1",
    "pEC50": "> 8.00"
  },
  {
    "smilesRepr": "Cc1ccc(-n2nc(C(C)(C)C)cc2NC(=O)Nc2ccc(Oc3ccnc(NC(=O)CS(C)(=O)=O)c3)c3ccccc23)cc1",
    "pEC50": "> 8.00"
  }
]

Could you now look at the following compound, please?
Enquiry: Form field: reported pEC50 of "COCCOCC(=O)Nc1cnccc1COc1ccc(NC(=O)Nc2cc(C(C)(C)C)nn2-c2ccc(C)cc2)c2ccccc12"
Return: > 8.00
